Test system: Proto-oncogene tyrosine-protein kinase receptor Ret (Homo sapiens), P07949 [V804L]
Sequence (P07949 whole entry V804L): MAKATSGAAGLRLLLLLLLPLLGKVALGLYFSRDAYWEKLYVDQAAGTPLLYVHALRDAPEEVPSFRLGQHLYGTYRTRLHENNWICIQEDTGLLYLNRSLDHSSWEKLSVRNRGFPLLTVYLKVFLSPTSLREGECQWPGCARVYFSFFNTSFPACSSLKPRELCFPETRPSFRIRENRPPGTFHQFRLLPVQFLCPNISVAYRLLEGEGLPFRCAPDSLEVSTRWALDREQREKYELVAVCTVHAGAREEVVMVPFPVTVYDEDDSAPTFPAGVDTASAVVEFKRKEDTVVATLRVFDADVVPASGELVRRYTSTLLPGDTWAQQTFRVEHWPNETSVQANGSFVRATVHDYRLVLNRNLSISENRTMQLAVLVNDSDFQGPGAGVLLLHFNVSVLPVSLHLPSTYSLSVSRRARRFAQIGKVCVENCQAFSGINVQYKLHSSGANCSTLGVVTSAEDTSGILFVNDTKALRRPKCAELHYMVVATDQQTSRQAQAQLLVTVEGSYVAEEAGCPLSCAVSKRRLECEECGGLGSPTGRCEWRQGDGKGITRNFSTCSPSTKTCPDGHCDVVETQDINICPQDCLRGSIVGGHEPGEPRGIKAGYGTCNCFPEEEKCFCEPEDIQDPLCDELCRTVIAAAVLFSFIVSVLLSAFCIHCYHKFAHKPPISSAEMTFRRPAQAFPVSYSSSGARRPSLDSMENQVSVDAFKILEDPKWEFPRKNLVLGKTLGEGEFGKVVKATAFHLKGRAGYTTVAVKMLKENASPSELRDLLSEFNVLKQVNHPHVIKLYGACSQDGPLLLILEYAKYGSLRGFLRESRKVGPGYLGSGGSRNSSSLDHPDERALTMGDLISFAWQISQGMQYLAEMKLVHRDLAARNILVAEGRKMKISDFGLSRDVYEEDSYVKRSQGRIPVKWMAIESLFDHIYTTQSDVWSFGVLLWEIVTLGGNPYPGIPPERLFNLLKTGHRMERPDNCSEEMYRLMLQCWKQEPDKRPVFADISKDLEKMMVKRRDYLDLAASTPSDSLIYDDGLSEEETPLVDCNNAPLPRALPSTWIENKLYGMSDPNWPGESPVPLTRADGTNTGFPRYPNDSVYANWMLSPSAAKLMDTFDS
measurementContext: at 0.1 µM
Give True when the value for inhibition is at least 4%. Give False when it is less.

| substanceSmiles | measuredTarget | answerLabel |
| --- | --- | --- |
| COc1ccc(-c2cc(-c3c[nH]nc3-c3ccccn3)ccn2)cc1 | Proto-oncogene tyrosine-protein kinase receptor Ret (Homo sapiens), P07949 [V804L] | True |

Qu. Answer whether inhibition of `COC(=O)c1sc(-n2cnc3cc(OC)c(OC)cc32)cc1OCc1ccccc1C(F)(F)F` is greater than or equal to 4%.
Ans. True

Qu. Try `CC(C)(CO)CNC(=O)c1ccc2c(c1)/C(=N/Nc1ccc(S(N)(=O)=O)cc1)C(=O)N2` next.
Ans. True

Qu. Consider next the molecule `Fc1ccc(-c2nn3ncccc3c2-c2ccnc(Nc3ccc4c(c3)OCCO4)n2)cc1` in the same way.
Ans. True

Qu. Note, next up: `O=C(O[C@H]1CN[C@H](C#Cc2cc3ncnc(Nc4ccc(Cc5ccccc5)cc4)c3s2)C1)N1CCOCC1`
Ans. False

Qu. Can you check `CCn1c(-c2nonc2N)nc2c(C#CC(C)(C)O)nc(OC[C@H](N)c3ccccc3)cc21` next?
Ans. False

Qu. Likewise for `Cc1ccc(O)cc1Nc1ccnc2cc(-c3ccccn3)ccc12` ?
Ans. True

Qu. What do you get for `COc1cc2ncn(-c3cc(OCc4ccccc4C(F)(F)F)c(C(=O)N(C)C)s3)c2cc1OC` ?
Ans. False

Qu. Repeat for the following molecule: `CCNC(=O)O[C@H]1CN[C@H](C#Cc2cc3ncnc(Nc4ccc(OCc5cccc(F)c5)c(Cl)c4)c3s2)C1`
Ans. False

----------
measuredTarget: Serine/threonine-protein kinase Sgk1 (Homo sapiens)
measurementContext: at 0.1 µM
Description: GSK_PKIS: SGK1 mean inhibition at 0.1 uM [Nanosyn]
We'd kindly ask you to apply these inhibition classes: range A: < 1%; range B: ≥ 1% and < 2%; range C: ≥ 2%

Consider the following illustrative entries.
| substanceSmiles | answerLabel |
| --- | --- |
| COC(=O)c1sc(-n2cnc3cc(OC)c(OC)cc32)cc1OCc1ccccc1C(F)(F)F | range C |
| COc1cc2ncn(-c3cc(OCc4ccccc4C(F)(F)F)c(C(=O)N(C)C)s3)c2cc1OC | range A |
| COc1ccc(-c2nn3ncccc3c2-c2ccnc(Nc3ccc4c(c3)OCCO4)n2)cc1 | range B |

Qu. Sort into band: `CC(=O)NCc1cccc(C#Cc2cncnc2Nc2ccc(OCc3cccc(F)c3)c(Cl)c2)c1`
Ans. range A

Qu. Now this one: `CC(C)COC(=O)c1ccc2c(c1)/C(=C/Nc1ccc(S(N)(=O)=O)cc1)C(=O)N2`
Ans. range B

Qu. Param item: `CCc1nn2ncccc2c1-c1ccnc(NC2CC2)n1`
Ans. range C

Qu. Next compound: `CCOc1ccc2c(-c3ccnc(Nc4cccc(C(F)(F)F)c4)n3)cnn2n1`
Ans. range B

Qu. Also `CN(C)CCOc1ccc(-c2nc(-c3ccncc3)c(-c3ccc4c(c3)CC/C4=N\O)[nH]2)cc1` ?
Ans. range C

----------
Attribute: inhibition
measuredTarget: G protein-coupled receptor kinase 6 (Homo sapiens);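 note: values are averaged percent inhibition of GRK6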
measurementContext: at 1 µM
Value expressed in %; do not type the unit.

These recorded examples may help you get a feel for the data.
| substanceSmiles | inhibition / % |
| --- | --- |
| NC(=O)c1sc(-n2cnc3ccc(C(F)(F)F)cc32)cc1OCc1ccccc1Br | 9.67 |
| CN(C)CCOc1ccc(-c2nc(-c3ccncc3)c(-c3ccc4c(c3)CC/C4=N\O)[nH]2)cc1 | 2.76 |

Qu. Item under review: `CC(=O)NCc1cccc(C#Cc2cncnc2Nc2ccc(OCc3cccc(F)c3)c(Cl)c2)c1` . Reported inhibition?
Ans. 3.06

These data points were gathered from ChEMBL document CHEMBL1961873.
